Kindly supply the reported k2/kT values for the records listed here.
# Tested on: gills of rainbow trout
# TEST PROTOCOL: Mechanistic one-box mass balance model of gill uptake and elimination
# CONDITION LABEL: pH 7.6 (MIX1, MIX2)
// no unit, no text: just the number

Which k2/kT value belongs to `CCCCCCCCCCCCCCCCNC` ? 0.03

Which k2/kT value belongs to `CCCCCCCCCCCCNC` ? 0.6

Which k2/kT value belongs to `CCCCCCCCCCCCCN` ? 0.17

Which k2/kT value belongs to `CCCCCCCCCCCCCCCCN` ? 0.01

Which k2/kT value belongs to `CCCCCCCCCCCCN` ? 0.11

Which k2/kT value belongs to `CCCCCCCCCCCCCCN(C)C` ? 1.2

Which k2/kT value belongs to `CCCCCCCCCN(C)C` ? 4.6

Which k2/kT value belongs to `CCCCCCCCCCN(C)C` ? 5.0

Which k2/kT value belongs to `CCCCCCCCCCCCCN(C)C` ? 1.9
